Biological target: endopeptidase 24-15 (Rattus norvegicus)
Assay: Inhibition of neurotensin degradation by purified endopeptidase 24-15 (HPLC), inhibition constant Ki
pKi: −log10 of the molar value.
pKi for assorted molecules
Measure Name: pKi

Molecule	Measure Name	Recorded Value
C[C@H](NC(=O)[C@H](CCCNC(=N)N)NC(=O)CCP(=O)(O)C(Cc1ccccc1)NC(=O)OCc1ccccc1)C(=O)O (mixture of isomers)	pKi	8.66
N=C(N)NCCC[C@H](NC(=O)CCP(=O)(O)C(Cc1ccccc1)NC(=O)OCc1ccccc1)C(=O)N[C@@H](CC(N)=O)C(=O)O (mixture of isomers)	pKi	7.71
N=C(N)NCCC[C@H](NC(=O)CCP(=O)(O)C(Cc1ccccc1)NC(=O)OCc1ccccc1)C(=O)N[C@@H](Cc1ccc(O)cc1)C(=O)O (mixture of isomers)	pKi	8.44
CC(C)C[C@H](NC(=O)[C@H](CCCCN)NC(=O)C(C)CP(=O)(O)C(Cc1ccccc1)NC(=O)OCc1ccccc1)C(=O)O (mixture of isomers)	pKi	8.74
CCCC[C@H](NC(=O)[C@H](CCCCN)NC(=O)C(C)CP(=O)(O)C(Cc1ccccc1)NC(=O)OCc1ccccc1)C(=O)O (mixture of isomers)	pKi	9.20
CC(C)[C@H](NC(=O)[C@H](CCCNC(=N)N)NC(=O)CCP(=O)(O)C(Cc1ccccc1)NC(=O)OCc1ccccc1)C(=O)O (mixture of isomers)	pKi	8.03
CSCC[C@H](NC(=O)[C@H](CCCNC(=N)N)NC(=O)CCP(=O)(O)C(Cc1ccccc1)NC(=O)OCc1ccccc1)C(=O)O (mixture of isomers)	pKi	9.46
CCCC[C@H](NC(=O)[C@H](CCCNC(=N)N)NC(=O)CCP(=O)(O)C(Cc1ccccc1)NC(=O)OCc1ccccc1)C(=O)O (mixture of isomers)	pKi	8.80
CC(CP(=O)(O)C(Cc1ccccc1)NC(=O)OCc1ccccc1)C(=O)N[C@@H](CCCCN)C(=O)N[C@H](C(=O)O)[C@@H](C)O (mixture of isomers)	pKi	8.00

* * *

Biological target: endopeptidase 24-16 (Homo sapiens, UniProt Q9BYT8)
Sequence (Q9BYT8 38-704): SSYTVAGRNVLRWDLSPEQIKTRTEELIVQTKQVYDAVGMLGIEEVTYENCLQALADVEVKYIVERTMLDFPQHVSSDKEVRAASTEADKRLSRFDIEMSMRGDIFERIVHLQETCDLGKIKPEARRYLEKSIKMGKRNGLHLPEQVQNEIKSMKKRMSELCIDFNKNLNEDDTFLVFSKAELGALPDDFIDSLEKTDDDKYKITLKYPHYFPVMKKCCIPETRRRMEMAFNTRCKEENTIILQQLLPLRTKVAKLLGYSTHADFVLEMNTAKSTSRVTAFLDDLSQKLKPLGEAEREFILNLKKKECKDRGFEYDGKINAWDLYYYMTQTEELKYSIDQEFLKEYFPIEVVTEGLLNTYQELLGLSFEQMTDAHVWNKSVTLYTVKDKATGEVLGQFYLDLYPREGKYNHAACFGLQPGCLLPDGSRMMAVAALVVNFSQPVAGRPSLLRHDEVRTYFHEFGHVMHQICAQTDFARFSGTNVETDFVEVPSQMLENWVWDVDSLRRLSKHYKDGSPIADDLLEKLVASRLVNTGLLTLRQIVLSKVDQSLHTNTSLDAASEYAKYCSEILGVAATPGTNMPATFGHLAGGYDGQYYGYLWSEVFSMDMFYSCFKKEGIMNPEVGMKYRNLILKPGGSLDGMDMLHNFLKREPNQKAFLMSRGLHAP
Test: Inhibition of neurotensin degradation by purified endopeptidase 24-16 (HPLC), inhibition constant Ki
Settings: neurotensin 20 μmole/l, 1 hour at 30° C., tris-HCl pH 7.5
Measure Name: Ki (nM)

Molecule	Experimental System	Measure Name	Unit String	Recorded Value
N=C(N)NCCC[C@H](NC(=O)CCP(=O)(O)C(Cc1ccccc1)NC(=O)OCc1ccccc1)C(=O)N[C@@H](CC(=O)O)C(=O)O (mixture of isomers) [compound 20, Z--Phe .PSI. (PO2 CH2)Gly--Arg--Asp]	endopeptidase 24-16 (Homo sapiens, UniProt Q9BYT8)	Ki	nM	20400
N=C(N)NCCC[C@H](NC(=O)CCP(=O)(O)C(Cc1ccccc1)NC(=O)OCc1ccccc1)C(=O)N1CCC[C@H]1C(=O)O (mixture of isomers) [compound 21, Z--Phe .PSI. (PO2 CH2)Gly--Arg--Pro]	endopeptidase 24-16 (Homo sapiens, UniProt Q9BYT8)	Ki	nM	36700
CC(C)CC(CP(=O)(O)C(Cc1ccccc1)NC(=O)OCc1ccccc1)C(=O)N[C@@H](CCCNC(=N)N)C(=O)N[C@@H](Cc1ccccc1)C(=O)O (mixture of isomers) [compound 44, Z--Phe .PSI. (PO2 CH2)Leu--Arg--Phe]	endopeptidase 24-16 (Homo sapiens, UniProt Q9BYT8)	Ki	nM	2290
N=C(N)NCCC[C@H](NC(=O)CCP(=O)(O)C(Cc1ccccc1)NC(=O)OCc1ccccc1)C(=O)N[C@@H](CC(N)=O)C(=O)O (mixture of isomers) [compound 13, Z--Phe .PSI. (PO2 CH2)Gly--Arg--Asn]	endopeptidase 24-16 (Homo sapiens, UniProt Q9BYT8)	Ki	nM	1380
CCCC[C@H](NC(=O)[C@H](CCCCN)NC(=O)C(C)CP(=O)(O)C(Cc1ccccc1)NC(=O)OCc1ccccc1)C(=O)O (mixture of isomers) [compound 23, Z--Phe .PSI. (PO2 CH2)Ala--Lys--Nle]	endopeptidase 24-16 (Homo sapiens, UniProt Q9BYT8)	Ki	nM	162

* * *

# reported SELECTIVITY (ratio Ki24-16 /Ki24-15); entries follow
Target: endopeptidase 24-15 (Rattus norvegicus, UniProt P24155)
Sequence (P24155 whole entry): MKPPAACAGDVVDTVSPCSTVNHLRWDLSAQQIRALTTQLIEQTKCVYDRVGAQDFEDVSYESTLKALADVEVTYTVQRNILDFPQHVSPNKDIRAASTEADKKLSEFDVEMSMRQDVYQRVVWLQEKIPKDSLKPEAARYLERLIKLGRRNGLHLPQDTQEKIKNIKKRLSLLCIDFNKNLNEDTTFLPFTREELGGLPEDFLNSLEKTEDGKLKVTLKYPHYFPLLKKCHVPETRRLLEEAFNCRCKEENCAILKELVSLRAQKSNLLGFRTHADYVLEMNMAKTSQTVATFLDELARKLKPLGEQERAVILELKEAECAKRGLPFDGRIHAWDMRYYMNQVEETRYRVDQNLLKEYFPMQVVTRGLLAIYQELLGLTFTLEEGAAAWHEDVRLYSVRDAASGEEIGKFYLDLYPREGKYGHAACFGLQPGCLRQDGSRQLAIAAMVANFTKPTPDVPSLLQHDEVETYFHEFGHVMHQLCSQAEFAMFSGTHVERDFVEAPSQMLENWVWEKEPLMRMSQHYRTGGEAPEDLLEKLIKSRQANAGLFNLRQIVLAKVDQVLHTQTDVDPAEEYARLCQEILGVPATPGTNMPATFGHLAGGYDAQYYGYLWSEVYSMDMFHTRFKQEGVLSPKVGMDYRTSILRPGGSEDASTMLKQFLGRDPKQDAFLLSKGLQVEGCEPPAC
Experiment: Inhibition of neurotensin degradation by purified endopeptidase 24-15 (HPLC), inhibition constant Ki
Conditions: selectivity relative to endopeptidase 24-16
Measure Name: SELECTIVITY (ratio Ki24-16 /Ki24-15)

Molecule	Recorded Value
N=C(N)NCCC[C@H](NC(=O)[C@H](CCCNC(=N)N)NC(=O)CCP(=O)(O)C(Cc1ccccc1)NC(=O)OCc1ccccc1)C(=O)O (mixture of isomers)	145
CCCC[C@H](NC(=O)[C@H](CCCNC(=N)N)NC(=O)CCP(=O)(O)C(Cc1ccccc1)NC(=O)OCc1ccccc1)C(=O)O (mixture of isomers)	135
CC[C@H](C)[C@H](NC(=O)[C@H](CCCNC(=N)N)NC(=O)CCP(=O)(O)C(Cc1ccccc1)NC(=O)OCc1ccccc1)C(=O)O (mixture of isomers)	61
C[C@H](NC(=O)[C@H](CCCNC(=N)N)NC(=O)CCP(=O)(O)C(Cc1ccccc1)NC(=O)OCc1ccccc1)C(=O)O (mixture of isomers)	91
N=C(N)NCCC[C@H](NC(=O)CCP(=O)(O)C(Cc1ccccc1)NC(=O)OCc1ccccc1)C(=O)N1CCC[C@H]1C(=O)O (mixture of isomers)	10

* * *

Target: endopeptidase 24-15 (Rattus norvegicus, UniProt P24155)
Assay: Inhibition of neurotensin degradation by purified endopeptidase 24-15 (HPLC), inhibition constant Ki

Compound	Unit String	Ki
N=C(N)NCCC[C@H](NC(=O)CCP(=O)(O)C(Cc1ccccc1)NC(=O)OCc1ccccc1)C(=O)N[C@@H](Cc1c[nH]c2ccccc12)C(=O)O (mixture of isomers) [compound 10, Z--Phe .PSI. (PO2 CH2)Gly--Arg--Trp]	µM	0.0131
CC(CP(=O)(O)C(Cc1ccccc1)NC(=O)OCc1ccccc1)C(=O)N[C@@H](CCCCN)C(=O)N[C@@H](C)C(=O)O (mixture of isomers) [compound 24, Z--Phe .PSI. (PO2 CH2)Ala--Lys--Ala]	µM	0.00083
N=C(N)NCCC[C@H](NC(=O)[C@H](CCCNC(=N)N)NC(=O)CCP(=O)(O)C(Cc1ccccc1)NC(=O)OCc1ccccc1)C(=O)O (mixture of isomers) [compound 12, Z--Phe .PSI. (PO2 CH2)Gly--Arg--Arg]	µM	0.014
N=C(N)NCCC[C@H](NC(=O)CCP(=O)(O)C(Cc1ccccc1)NC(=O)OCc1ccccc1)C(=O)NCC(=O)O (mixture of isomers) [compound 11, Z--Phe .PSI. (PO2 CH2)Gly--Arg--Gly]	µM	0.0138
CC(CP(=O)(O)C(Cc1ccccc1)NC(=O)OCc1ccccc1)C(=O)N[C@@H](CCCCN)C(=O)N[C@@H](CCC(=O)O)C(=O)O (mixture of isomers) [compound 39, Z--Phe .PSI. (PO2 CH2)Ala--Lys--Glu]	µM	0.0535
CC(CP(=O)(O)C(Cc1ccccc1)NC(=O)OCc1ccccc1)C(=O)N[C@@H](CCCCN)C(=O)N[C@@H](CCCCN)C(=O)O (mixture of isomers) [compound 38, Z--Phe .PSI. (PO2 CH2)ASla--Lys--Lys]	µM	0.0269
C[C@@H](O)[C@H](NC(=O)[C@H](CCCNC(=N)N)NC(=O)CCP(=O)(O)C(Cc1ccccc1)NC(=O)OCc1ccccc1)C(=O)O (mixture of isomers) [compound 17, Z--Phe .PSI. (PO2 CH2)Gly--Arg--Thr]	µM	0.0352
CC(CP(=O)(O)C(Cc1ccccc1)NC(=O)OCc1ccccc1)C(=O)N[C@@H](CCCCN)C(=O)N[C@@H](CC(N)=O)C(=O)O (mixture of isomers) [compound 32, Z--Phe .PSI. (PO2 CH2)Ala--Lys--Asn]	µM	0.0049
CC(C)C[C@H](NC(=O)[C@H](CCCNC(=N)N)NC(=O)CCP(=O)(O)C(Cc1ccccc1)NC(=O)OCc1ccccc1)C(=O)O (mixture of isomers) [compound 6, Z--Phe .PSI. (PO2 CH2)Gly--Arg--Leu]	µM	0.005

* * *

Target: endopeptidase 24-15 (Rattus norvegicus, UniProt P24155)
Assay: Inhibition of neurotensin degradation by purified endopeptidase 24-15 (HPLC), inhibition constant Ki
Conditions: selectivity relative to endopeptidase 24-16
# SELECTIVITY (ratio Ki24-16 /Ki24-15) binned as low group = under 200, middle group = from 200 up to 700, high group = 700 and over

Molecule	Experimental System	Class
N=C(N)NCCC[C@H](NC(=O)CCP(=O)(O)C(Cc1ccccc1)NC(=O)OCc1ccccc1)C(=O)N[C@@H](CCC(N)=O)C(=O)O (mixture of isomers)	endopeptidase 24-15 (Rattus norvegicus, UniProt P24155)	low group
N=C(N)NCCC[C@H](NC(=O)CCP(=O)(O)C(Cc1ccccc1)NC(=O)OCc1ccccc1)C(=O)N[C@@H](CCCCN)C(=O)O (mixture of isomers)	endopeptidase 24-15 (Rattus norvegicus, UniProt P24155)	low group
CC(C)C[C@H](NC(=O)[C@H](CCCNC(=N)N)NC(=O)CCP(=O)(O)C(Cc1ccccc1)NC(=O)OCc1ccccc1)C(=O)O (mixture of isomers)	endopeptidase 24-15 (Rattus norvegicus, UniProt P24155)	low group
CC(CP(=O)(O)C(Cc1ccccc1)NC(=O)OCc1ccccc1)C(=O)N[C@@H](CCCNC(=N)N)C(=O)N[C@@H](Cc1ccccc1)C(=O)O (mixture of isomers)	endopeptidase 24-15 (Rattus norvegicus, UniProt P24155)	high group
N=C(N)NCCC[C@H](NC(=O)CCP(=O)(O)C(Cc1ccccc1)NC(=O)OCc1ccccc1)C(=O)N[C@@H](CC(N)=O)C(=O)O (mixture of isomers)	endopeptidase 24-15 (Rattus norvegicus, UniProt P24155)	low group
CC(CP(=O)(O)C(Cc1ccccc1)NC(=O)OCc1ccccc1)C(=O)N[C@@H](CCCCN)C(=O)N[C@@H](Cc1ccccc1)C(=O)O (mixture of isomers)	endopeptidase 24-15 (Rattus norvegicus, UniProt P24155)	high group
CC[C@H](C)[C@H](NC(=O)[C@H](CCCCN)NC(=O)C(C)CP(=O)(O)C(Cc1ccccc1)NC(=O)OCc1ccccc1)C(=O)O (mixture of isomers)	endopeptidase 24-15 (Rattus norvegicus, UniProt P24155)	middle group
CC(CP(=O)(O)C(Cc1ccccc1)NC(=O)OCc1ccccc1)C(=O)N[C@@H](CCCCN)C(=O)N[C@@H](C)C(=O)O (mixture of isomers)	endopeptidase 24-15 (Rattus norvegicus, UniProt P24155)	middle group

Taken from patent US5776903A.
